Target: ScHse1
Assay: SPOT peptide array binding signal intensity (averaged, normalized) (arbitrary units (background-subtracted, floor 0; scale differs between SH3 domains)); higher = stronger binding of the SH3 domain to the peptide
Can you tell me SPOT peptide array binding signal intensity for the items I'm about to list?
Answers are plain numbers.

Would you kindly share the measured SPOT peptide array binding signal intensity for `PLRRTVMSLPGNHDI` ?
288

For every item in the list below, what is its measured SPOT peptide array binding signal intensity?
1. LKVTPGRRAPTISKI
2. PAPPPPPRASRPTPN
3. GKFIPSRPAPKPPSS

1: 99; 2: 6; 3: 74
